Source: PubChem BioAssay (EPA / NIEHS)

- test: APR_HepG2_CellLoss_24hr: Apredica 24-hour HepG2 Assay for Cell Loss (AID 2282908);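 as to AC50: fit in both directions so a hit may be cell loss or gain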
- experimentalContext: high-content imaging
Calls of active or inactive are those of the source. The calls were made as follows: active = hit-call score of the fitted dose curve at least 0.9, where 1 is the maximum; inactive = score below 0.9.
assayMetric: AC50

# compound, AC50
measured = [
    ("Cc1ccn2nc(S(=O)(=O)Nc3c(F)cccc3F)nc2n1", "inactive"),
    ("C[Si](Cn1cncn1)(c1ccc(F)cc1)c1ccc(F)cc1", "inactive"),
    ("Cc1cc(C2CC2)nc(Nc2ccccc2)n1", "60.5 µM (active)"),
    ("Nc1c(Cl)cc([N+](=O)[O-])cc1Cl", "inactive"),
    ("O=[N+]([O-])c1cc(C(F)(F)F)c(Cl)c([N+](=O)[O-])c1Nc1ncc(C(F)(F)F)cc1Cl", "49.5 µM (active)"),
]

Q: Identify the reported AC50 for the following entry. N#CSCSC#N
A: 13.6 µM (active)

Q: Identify the reported AC50 for the following entry. C[N+]1(C)CCCCC1
A: inactive
